molecular target: CYP3A4 (Homo sapiens); experiment: CYP3A4 inhibition in live human HEK293 cells
Sequence (P08684 whole entry): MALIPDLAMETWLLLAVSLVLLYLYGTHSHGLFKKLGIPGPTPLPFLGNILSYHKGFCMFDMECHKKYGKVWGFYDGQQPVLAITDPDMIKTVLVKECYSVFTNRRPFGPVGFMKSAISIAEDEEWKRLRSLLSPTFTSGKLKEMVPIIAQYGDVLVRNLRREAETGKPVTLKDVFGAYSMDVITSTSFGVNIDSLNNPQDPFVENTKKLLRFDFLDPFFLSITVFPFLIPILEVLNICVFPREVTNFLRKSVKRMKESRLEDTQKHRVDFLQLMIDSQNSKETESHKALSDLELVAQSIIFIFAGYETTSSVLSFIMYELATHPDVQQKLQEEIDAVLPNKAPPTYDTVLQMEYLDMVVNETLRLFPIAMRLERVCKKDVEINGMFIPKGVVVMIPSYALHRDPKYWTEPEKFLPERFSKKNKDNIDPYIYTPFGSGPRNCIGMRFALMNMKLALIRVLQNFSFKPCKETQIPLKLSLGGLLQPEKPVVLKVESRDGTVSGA
Recorded IC50 for the following compounds

[
  {
    "compound": "COc1c2c(c(OC)c3occc13)OC(c1ccccc1)CC2=O (stereo not drawn) [4a]",
    "IC50": "> 10 µM"
  }
]

Record request: IC50 value, item COc1c2c(c(OC)c3occc13)OC(c1ccc(F)c(Br)c1)CC2=O (stereo not drawn) [4l]
> 10 µM

Would you mind doing COc1c2c(c(OC)c3occc13)OC(c1cccnc1)CC2=O (stereo not drawn) [4e] as well?
> 10 µM

----------
target: UniProt:Q16678; test: CYP1B1 inhibition in Sacchrosomes; type: biochemical
Sequence (Q16678 whole entry): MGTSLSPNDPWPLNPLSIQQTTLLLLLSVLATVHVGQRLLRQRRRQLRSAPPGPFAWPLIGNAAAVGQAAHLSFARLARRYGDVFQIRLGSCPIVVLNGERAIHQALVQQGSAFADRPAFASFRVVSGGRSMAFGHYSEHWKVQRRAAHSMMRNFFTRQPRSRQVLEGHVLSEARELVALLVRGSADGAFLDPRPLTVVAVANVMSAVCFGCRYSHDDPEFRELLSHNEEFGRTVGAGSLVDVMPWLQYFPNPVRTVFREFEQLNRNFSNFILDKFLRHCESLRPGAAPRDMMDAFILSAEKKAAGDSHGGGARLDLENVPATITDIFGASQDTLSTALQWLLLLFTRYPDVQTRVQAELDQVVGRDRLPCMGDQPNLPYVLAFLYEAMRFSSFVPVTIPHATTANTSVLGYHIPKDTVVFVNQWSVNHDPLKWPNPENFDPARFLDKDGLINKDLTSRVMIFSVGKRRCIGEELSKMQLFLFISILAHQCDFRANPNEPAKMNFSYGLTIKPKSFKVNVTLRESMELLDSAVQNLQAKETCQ
Recorded IC50 for the following compounds
Provide the reading as a plain figure in nM.

[
  {
    "compound": "COc1c(C(=O)C=Cc2ccsc2)c(O)c(OC)c2occc12 [3r]",
    "IC50 (nM)": 780
  }
]

Kindly state the measured IC50 obtained for COc1c(C(=O)C=Cc2cccnc2)c(O)c(OC)c2occc12 [3g] with UniProt:Q16678.
660
